system: pLai RLuc reporter virus; assay: HIV MT-4 serum shift antiviral reporter assay; format: cell-based; settings: Human immunodeficiency virus 1, MT4, 72 h, read-out: Antiviral Serum Shift RLuc 50% HS
Property Measured: pEC50
In simple prose, pEC50 is minus the logarithm base ten of a concentration in moles per litre.

- O=C(NCc1cccc(Cl)c1F)c1c2n3c(c(O)c1=O)C(=O)N1CCCC[C@@]3(CC2)C1: 8.22
- O=C(NCc1ccc(F)cc1F)c1c2n3c(c(O)c1=O)C(=O)N1CCCC[C@@]3(CC2)C1: 8.51
- O=C(NCc1ccc(F)cc1F)c1c2n3c(c(O)c1=O)C(=O)N1CCCC[C@]3(CC2)C1: 7.49

Kindly consider the entry below.
Data point: O=C(NCc1ccc(F)c(Cl)c1F)c1c2n3c(c(O)c1=O)C(=O)N1CCCC[C@@]3(C[C@@H]2O)C1 (single isomer, unassigned) ; pEC50 = 7.96

---

assay: Cytotoxicity assay in MT-4 cells; assay type: cell-based; details: human; uninfected MT-4 cells, 5 days incubation, Cell Titer Glo
Property Measured: log10 of CC50 at 5 days (log10 of the value in µM)
Form field - Quantity: CC50 at 5 days; Unit: µM; Scale: log10

Solved entries (count: 8):
* C[C@H]1C=CC[C@]23CCc4c(C(=O)NCc5c(F)cc(F)cc5F)c(=O)c(O)c(n42)C(=O)N1C3 [Compound 20] | 0.52
* O=C(NCc1c(F)cc(F)cc1F)c1c2n3c(c(O)c1=O)C(=O)N1CCCC[C@]3(C[C@H]2O)C1 (single isomer, unassigned) [Compound 9-1] | 0.91
* O=C(NCc1ccc(F)cc1F)c1c2n3c(c(O)c1=O)C(=O)N1CCCC[C@]3(C[C@@H]2O)C1 (single isomer, unassigned) [Compound 10-3] | 0.98
* O=C(NCc1ccc(F)cc1F)c1c2n3c(c(O)c1=O)C(=O)N1CCCC[C@]3(C[C@H]2O)C1 (single isomer, unassigned) [Compound 10-1] | 0.98
* O=C(NCc1ccc(F)c(Cl)c1F)c1c2n3c(c(O)c1=O)C(=O)N1CCCC[C@@]3(C[C@@H]2O)C1 (single isomer, unassigned) [Compound 14-2] | 0.32
* O=C(NCc1c(F)cc(F)cc1F)c1c2n3c(c(O)c1=O)C(=O)N1CCCC[C@@]3(C1)[C@@H](O)[C@@H]2O (single isomer, unassigned) [Compound 11-3] | 1.70
* O=C(NCc1ccc(F)cc1F)c1c2n3c(c(O)c1=O)C(=O)N1CCCC[C@@]3(C[C@H]2O)C1 (single isomer, unassigned) [Compound 10-2] | 0.61
* O=C(NCc1c(F)cc(F)cc1F)c1c2n3c(c(O)c1=O)C(=O)N1CCCC[C@]3(CC2CO)C1 (single isomer, unassigned) [Compound 16] | 0.87

Kindly consider the entry below.
Data point: CO[C@@H]1[C@@H](OC)c2c(C(=O)NCc3c(F)cc(F)cc3F)c(=O)c(O)c3n2[C@]12CCCCN(C2)C3=O (single isomer, unassigned) [Compound 13-4] ; log10 of CC50 at 5 days = 1.49

---

tested on: pLai RLuc reporter virus; experiment: HIV MT-4 serum shift antiviral reporter assay; assay type: cell-based; details: Human immunodeficiency virus 1, MT4, 72 h, read-out: Antiviral Serum Shift RLuc 50% HS
pEC50: −log10 of the molar value.
# if value of pEC50 reaches 8, tag T; if it stays below, tag F

• O=C(NCc1c(F)cc(F)cc1F)c1c2n3c(c(O)c1=O)C(=O)N1CCCC[C@]3(C[C@@H]2F)C1 (single isomer, unassigned) [Compound 8-1] = F
• O=C(NCc1ccc(F)cc1F)c1c2n3c(c(O)c1=O)C(=O)N1CCCC[C@]3(C[C@@H]2O)C1 (single isomer, unassigned) [Compound 10-3] = F
• O=C(NCc1c(F)cc(F)cc1F)c1c2n3c(c(O)c1=O)C(=O)N1CCCC[C@]3(C[C@@H]2O)C1 (single isomer, unassigned) [Compound 9-3] = F
• O=C(NCc1c(F)cc(F)cc1F)c1c2n3c(c(O)c1=O)C(=O)N1CCCC[C@]3(CC2)C1 [Compound 2] = F
• C[C@@]1(O)C[C@]23CCCCN(C2)C(=O)c2c(O)c(=O)c(C(=O)NCc4c(F)cc(F)cc4F)c1n23 [Compound 17] = T

Task: Kindly determine if pEC50 recorded for C[C@H]1C=CC[C@]23C[C@@H](O)c4c(C(=O)NCc5c(F)cc(F)cc5F)c(=O)c(O)c(n42)C(=O)N1C3 (single isomer, unassigned) [Compound 21-1] is above or exactly 8.
Result: F

Task: Kindly determine if pEC50 recorded for O=C(NCc1ccc(F)cc1F)c1c2n3c(c(O)c1=O)C(=O)N1CCCC[C@@]3(C[C@H]2O)C1 (single isomer, unassigned) [Compound 10-2] is above or exactly 8.
Result: F

Task: Kindly determine if pEC50 recorded for O=C1c2c(O)c(=O)c(-c3nnc(Cc4c(F)cc(F)cc4F)s3)c3n2C2(CCCCN1C2)CC3 (stereo not shown) [Compound 7] is above or exactly 8.
Result: F

Task: Kindly determine if pEC50 recorded for O=C(NCc1ccc(F)cc1F)c1c2n3c(c(O)c1=O)C(=O)N1CCCC[C@]3(C[C@H]2O)C1 (single isomer, unassigned) [Compound 10-1] is above or exactly 8.
Result: F

Task: Kindly determine if pEC50 recorded for O=C(NCc1c(F)cc(F)cc1F)c1c2n3c(c(O)c1=O)C(=O)N1CCCC[C@@]3(CC2CO)C1 (stereo partly shown) [Compound 18] is above or exactly 8.
Result: T

Task: Kindly determine if pEC50 recorded for O=C(NCc1c(F)cc(F)cc1F)c1c2n3c(c(O)c1=O)C(=O)N1CCCC[C@]3(C1)[C@H](O)[C@H]2O (single isomer, unassigned) [Compound 11-2] is above or exactly 8.
Result: F

Task: Kindly determine if pEC50 recorded for CO[C@H]1C[C@]23CCCCN(C2)C(=O)c2c(O)c(=O)c(C(=O)NCc4c(F)cc(F)cc4F)c1n23 (single isomer, unassigned) [Compound 12-2] is above or exactly 8.
Result: F

---

test system: pLai RLuc reporter virus; test: HIV MT-4 serum shift antiviral reporter assay; type: cell-based; conditions: Human immunodeficiency virus 1, MT4, 72 h, read-out: Antiviral Serum Shift RLuc CCM
pEC50: −log10 of the molar value.
# if value of pEC50 reaches 9, tag MET; if it stays below, tag NOT MET

• CO[C@H]1CC[C@H](C)N2C[C@]13CCc1c(C(=O)NCc4c(F)cc(F)cc4F)c(=O)c(O)c(n13)C2=O = MET
• O=C(NCc1ccc(F)c(Cl)c1F)c1c2n3c(c(O)c1=O)C(=O)N1CCCC[C@@]3(C[C@@H]2O)C1 (single isomer, unassigned) = MET

Task: Kindly determine if pEC50 recorded for O=C(NCc1ccc(F)c(Cl)c1F)c1c2n3c(c(O)c1=O)C(=O)N1CCCC[C@@]3(C[C@H]2O)C1 (single isomer, unassigned) is above or exactly 9.
Result: MET

Task: Kindly determine if pEC50 recorded for O=C(NCc1c(F)cc(F)cc1F)c1c2n3c(c(O)c1=O)C(=O)N1CCCC[C@@]3(C1)[C@@H](O)[C@@H]2O (single isomer, unassigned) is above or exactly 9.
Result: NOT MET

---

experiment: Cytotoxicity assay in MT-4 cells; assay type: cell-based; conditions: human; uninfected MT-4 cells, 5 days incubation, Cell Titer Glo
Property Measured: CC50 at 5 days

Solved entries (count: 2):
• CO[C@H]1CC[C@H](C)N2C[C@]13CCc1c(C(=O)NCc4ccc(F)cc4F)c(=O)c(O)c(n13)C2=O = 4.6 µM
• CO[C@@H]1[C@@H](OC)c2c(C(=O)NCc3c(F)cc(F)cc3F)c(=O)c(O)c3n2[C@@]12CCCCN(C2)C3=O (single isomer, unassigned) = 27.8 µM

Data point: O=C(NCc1cccc(Cl)c1F)c1c2n3c(c(O)c1=O)C(=O)N1CCCC[C@@]3(CC2)C1 ; CC50 at 5 days = 4.04 µM

---

system: pLai RLuc reporter virus; experiment: HIV MT-4 serum shift antiviral reporter assay; assay type: cell-based; settings: Human immunodeficiency virus 1, MT4, 72 h, read-out: Antiviral Serum Shift RLuc 50% HS
Property Measured: EC50 (µM)
Write down the numeric answer in µM and omit the unit.

- CO[C@@H]1C[C@@]23CCCCN(C2)C(=O)c2c(O)c(=O)c(C(=O)NCc4c(F)cc(F)cc4F)c1n23 (single isomer, unassigned): 0.0169
- O=C(NCc1c(F)cc(F)cc1F)c1c2n3c(c(O)c1=O)C(=O)N1CCCC[C@@]3(C1)[C@@H](O)[C@@H]2O (single isomer, unassigned): 0.00757
- C[C@H]1C=CC[C@]23CCc4c(C(=O)NCc5c(F)cc(F)cc5F)c(=O)c(O)c(n42)C(=O)N1C3: 0.016

Data point: C[C@H]1C=CC[C@]23C[C@H](O)c4c(C(=O)NCc5c(F)cc(F)cc5F)c(=O)c(O)c(n42)C(=O)N1C3 (single isomer, unassigned) ; EC50 = 0.012

All figures here come from patent US12122776B2.
